- System: HMPV clinical isolate TN/1501/A1
- ASSAY: HMPV antiviral assay Method-B (clinical isolate TN/1501/A1 in LLC-MK2 cells, ATP-Lite readout)
- Type: cell-based, Human metapneumovirus (HMPV)
- ASSAY CONDITIONS: human metapneumovirus, LLC-MK2, 144 h, hMPV WT1501 (clinical isolate TN/1501/A1), 6 days
pEC50: −log10 of the molar value.
Below, each entry is listed with its recorded pEC50.

The cases that follow already have their pEC50 on record.
C[C@]1(C(N)=O)COc2c1cc([C@@](O)(CNC(=O)c1cc(OCC3CC3)c3nn(C4(F)CC4)cc3c1)C(F)(F)F)nc2-c1cc(Cl)c(F)cc1F > 6.30
COc1cc(C(=O)NC[C@](O)(c2cc3c(c(-c4csc5c(F)cccc45)n2)OC[C@]3(C)C(N)=O)C(F)(F)F)cc2cn(C3(F)CC3)nc12 > 6.30

q: Give pEC50 for the following compound: COc1cc(C(=O)NC[C@](O)(c2cc3c(c(-c4csc5c(F)cccc45)n2)OC[C@]3(C)C(N)=O)C(F)(F)F)cc2cc(C3CC3)nn12
a: > 6.30

q: Give pEC50 for the following compound: C[C@]1(C(N)=O)COc2c1cc([C@@](O)(CNC(=O)c1cc(Cl)c3nn(C4CC4)cc3c1)C1CC1)nc2-c1ccc2c(c1)OC(F)(F)O2
a: > 6.30

q: Give pEC50 for the following compound: COc1cc(C(=O)NC[C@](O)(c2cc3c(c(-c4ccc5c(c4)OCCO5)n2)OC[C@]3(C)C(N)=O)C(F)(F)F)cc2cn(C3CC3)nc12
a: < 6.30

q: Give pEC50 for the following compound: COc1cc(C(=O)NC[C@](O)(c2cc3c(c(-c4ccc5c(c4)OC(F)(F)O5)n2)OC[C@]3(C)C(N)=O)C2CC2)cc2cn(C3(F)CC3)nc12
a: > 6.30
